ASSAY_INFO: The drug is tested on WLS-310 corresponding to human gut metagenome with ENA study accession number: PRJEB37062 and ENA sample accession number: ERS12561785 for biotransformation under anaerobic condition. The drug concentrations were measured over 9 timepoints collected between 0 and 24 hours of incubation by liquid-chromatography-coupled mass spectrometry (LC–MS); further: call rule not given here
CONDITION_PARAMETERS: 2 µM
EXPERIMENTAL_READOUT: Bacterial Biotransformation

Solved entries:
Provide one value: measured Bacterial Biotransformation of `CC(C)c1c(C(=O)Nc2ccccc2)c(-c2ccccc2)c(-c2ccc(F)cc2)n1CC[C@@H](O)C[C@@H](O)CC(=O)O`
Compound metabolized

Output measured Bacterial Biotransformation for this item: `C=CCN1CC[C@]23c4c5ccc(O)c4O[C@H]2C(=O)CC[C@@]3(O)[C@H]1C5`
Compound NOT metabolized

State its Bacterial Biotransformation: `O=C(CCCN1CCC(O)(c2ccc(Cl)cc2)CC1)c1ccc(F)cc1`
Compound metabolized

Let me know recorded Bacterial Biotransformation for `COc1c2occc2cc2ccc(=O)oc12` , thanks.
Compound metabolized

Return value of Bacterial Biotransformation for input O=C(Nc1ccccc1)OCC(CN1CCCCC1)OC(=O)Nc1ccccc1 (stereo not given) , no commentary.
Compound metabolized

State, in one line, measured Bacterial Biotransformation of CC(C)NCC(O)COc1ccc(CCOCC2CC2)cc1 (stereo not given)
Compound metabolized

Now for another entry.
Note down Bacterial Biotransformation recorded for CC(O)(CS(=O)(=O)c1ccc(F)cc1)C(=O)Nc1ccc(C#N)c(C(F)(F)F)c1 (stereo not given) [BICALUTAMIDE]
Compound NOT metabolized

###

CONDITION_PARAMETERS: human gut metagenome, 24 h, 2 µM
EXPERIMENTAL_READOUT: Bacterial Biotransformation

These recorded examples may help you get a feel for the data.
Supply Bacterial Biotransformation value. Item: CNCCC(Oc1ccc(C(F)(F)F)cc1)c1ccccc1 (configuration not stated) [FLUOXETINE]
Compound NOT metabolized

State, in one line, measured Bacterial Biotransformation of O=C(Nc1ccccc1)OCC(CN1CCCCC1)OC(=O)Nc1ccccc1 (configuration not stated) [DIPERODON]
Compound NOT metabolized

Return reported Bacterial Biotransformation. Input compound: O=C(O)COCCN1CCN(C(c2ccccc2)c2ccc(Cl)cc2)CC1 (configuration not stated) [CETIRIZINE]
Compound metabolized

Given the compound OC(CCN1CCCCC1)(c1ccccc1)C1CCCCC1 (configuration not stated) [TRIHEXYPHENIDYL] , write its reported Bacterial Biotransformation.
Compound metabolized

Identify the reported Bacterial Biotransformation for the following entry. `CCCc1nc2c(C)cc(-c3nc4ccccc4n3C)cc2n1Cc1ccc(-c2ccccc2C(=O)O)cc1`
Compound metabolized

Further cases:
Specify reported Bacterial Biotransformation for the compound shown: CCOC(=O)[C@H](CCc1ccccc1)N[C@@H](C)C(=O)N1[C@H](C(=O)O)C[C@H]2CCCC[C@@H]21 [TRANDOLAPRIL]
Compound metabolized

Retrieve Bacterial Biotransformation measured for CC(C)(C#N)c1cc(Cn2cncn2)cc(C(C)(C)C#N)c1 [ANASTROZOLE] and print it.
Compound NOT metabolized

###

CONDITION_PARAMETERS: human gut metagenome, 24 h, 2 µM
EXPERIMENTAL_READOUT: Bacterial Biotransformation

Sample answers from the record:
Given CC(=O)O[C@]1(C(C)=O)CC[C@H]2[C@@H]3C=C(Cl)C4=CC(=O)[C@@H]5C[C@@H]5[C@]4(C)[C@H]3CC[C@@]21C [CYPROTERONE ACETATE] , respond with its Bacterial Biotransformation.
Compound metabolized

Recall and state the measured Bacterial Biotransformation for `CN1CCc2cccc3c2[C@H]1Cc1ccc(O)c(O)c1-3` .
Compound NOT metabolized

Return Bacterial Biotransformation (reported value) for this compound: `CCOC(=O)[C@H](CCc1ccccc1)N[C@@H](C)C(=O)N1[C@H](C(=O)O)C[C@H]2CCCC[C@@H]21`
Compound NOT metabolized

Consider the compound CN(C)C(=O)C(CCN1CCC(O)(c2ccc(Cl)cc2)CC1)(c1ccccc1)c1ccccc1 [LOPERAMIDE] and give its recorded Bacterial Biotransformation.
Compound metabolized

Using the record for `CN1CC(=O)N2[C@H](c3ccc4c(c3)OCO4)c3[nH]c4ccccc4c3C[C@@H]2C1=O` , state its measured Bacterial Biotransformation.
Compound NOT metabolized

State its Bacterial Biotransformation for this compound: CS(=O)(=O)O.O.O.O.O=C1Cc2cc(CCN3CCN(c4nsc5ccccc45)CC3)c(Cl)cc2N1 [ZIPRASIDONE MESYLATE]
Compound NOT metabolized

Return Bacterial Biotransformation (reported value) for this compound: `O=C(CCCN1CCC(O)(c2ccc(Cl)cc2)CC1)c1ccc(F)cc1`
Compound NOT metabolized

For the compound CC(C)(C)NC[C@H](O)COc1ccccc1C1CCCC1.CC(C)(C)NC[C@H](O)COc1ccccc1C1CCCC1.O=S(=O)(O)O [PENBUTOLOL SULFATE] , give its measured Bacterial Biotransformation value.
Compound metabolized

Return the recorded Bacterial Biotransformation value; entry: CC(O)(CS(=O)(=O)c1ccc(F)cc1)C(=O)Nc1ccc(C#N)c(C(F)(F)F)c1 (configuration not stated) [BICALUTAMIDE]
Compound NOT metabolized

Return Bacterial Biotransformation (reported value) for this compound: `Cc1ccc(-c2nc3ccc(C)cn3c2CC(=O)N(C)C)cc1`
Compound metabolized

Further cases:
Consider the compound CNCCC(Oc1ccc(C(F)(F)F)cc1)c1ccccc1 (configuration not stated) and give its recorded Bacterial Biotransformation.
Compound metabolized

// fetch Bacterial Biotransformation given entry `O=c1n(CCCN2CCN(c3cccc(Cl)c3)CC2)nc2ccccn12`
Compound NOT metabolized

State, in one line, measured Bacterial Biotransformation of CCN(CC)CCNC(C(=O)OCCC(C)C)c1ccccc1.Cl.Cl (configuration not stated)
Compound metabolized

###

ASSAY_INFO: The drug is tested on Z-012 corresponding to metagenome with ENA study accession number: PRJEB37062 and ENA sample accession number: ERS12561812 for biotransformation under anaerobic condition. The drug concentrations were measured over 9 timepoints collected between 0 and 24 hours of incubation by liquid-chromatography-coupled mass spectrometry (LC–MS)
CONDITION_PARAMETERS: 2 µM
EXPERIMENTAL_READOUT: Bacterial Biotransformation

These solved cases illustrate the format of a correct answer.
Given CC(C)c1nc(CN(C)C(=O)N[C@H](C(=O)N[C@@H](Cc2ccccc2)C[C@H](O)[C@H](Cc2ccccc2)NC(=O)OCc2cncs2)C(C)C)cs1 [RITONAVIR] , respond with its Bacterial Biotransformation.
Compound metabolized

Respond only with Bacterial Biotransformation recorded for CC(C(=O)O)c1ccc2c(c1)Cc1cccnc1O2 (stereo unspecified) [PRANOPROFEN]
Compound metabolized

Give the reported Bacterial Biotransformation for this molecule. O=C(CCCN1CCC(O)(c2ccc(Cl)cc2)CC1)c1ccc(F)cc1 [HALOPERIDOL]
Compound NOT metabolized

Answer with the recorded Bacterial Biotransformation for the molecule listed here: CCCC(=O)Nc1ccc(OCC(O)CNC(C)C)c(C(C)=O)c1 (stereo unspecified) [ACEBUTOLOL]
Compound NOT metabolized

Identify the reported Bacterial Biotransformation for the following entry. COc1ccc2c3c1O[C@H]1C[C@@H](O)C=C[C@@]31CCN(C)C2 [GALANTAMINE]
Compound NOT metabolized

Please give the documented Bacterial Biotransformation of COC(=O)[C@H]1[C@H]2C[C@@H]3c4[nH]c5cc(OC)ccc5c4CCN3C[C@H]2C[C@@H](OC(=O)c2cc(OC)c(OC)c(OC)c2)[C@@H]1OC [RESERPINE]
Compound NOT metabolized

---
Tell me measured Bacterial Biotransformation for CC(C)(C(=O)O)c1ccc(C(O)CCCN2CCC(C(O)(c3ccccc3)c3ccccc3)CC2)cc1 (stereo unspecified) [FEXOFENADINE] please.
Compound NOT metabolized

Consider the molecule CCCc1nn(C)c2c(=O)[nH]c(-c3cc(S(=O)(=O)N4CCN(C)CC4)ccc3OCC)nc12.O=C(O)CC(O)(CC(=O)O)C(=O)O [SILDENAFIL CITRATE] . State its measured Bacterial Biotransformation.
Compound NOT metabolized

Give the value of Bacterial Biotransformation reported for the following: CC(C)NCC(O)COc1ccc(COCCOC(C)C)cc1.CC(C)NCC(O)COc1ccc(COCCOC(C)C)cc1.O=C(O)/C=C/C(=O)O (stereo unspecified) [BISOPROLOL FUMARATE]
Compound NOT metabolized

Assign Bacterial Biotransformation to the following record: CN1CCOC(c2ccccc2)c2ccccc2C1 (stereo unspecified) [NEFOPAM]
Compound NOT metabolized

Item O=C(O)CCc1nc(-c2ccccc2)c(-c2ccccc2)o1 [OXAPROZIN] : provide Bacterial Biotransformation
Compound NOT metabolized

###

CONDITION_PARAMETERS: human gut metagenome, 24 h, 2 µM
EXPERIMENTAL_READOUT: Bacterial Biotransformation

Look over these answered cases.
For the compound CCCc1nn(C)c2c(=O)[nH]c(-c3cc(S(=O)(=O)N4CCN(C)CC4)ccc3OCC)nc12.O=C(O)CC(O)(CC(=O)O)C(=O)O [SILDENAFIL CITRATE] , give its measured Bacterial Biotransformation value.
Compound metabolized

Could you please provide reported Bacterial Biotransformation for CC(CN(C)C)CN1c2ccccc2CCc2ccccc21.O=C(O)/C=C\C(=O)O (stereo unspecified) [TRIMIPRAMINE MALEATE] ? Thanks!
Compound NOT metabolized

Hello, please tell me recorded Bacterial Biotransformation for this one: CN1C(C(=O)Nc2ccccn2)=C(O)c2sccc2S1(=O)=O [TENOXICAM]
Compound NOT metabolized

Recall and state the measured Bacterial Biotransformation for `CCCc1nc2c(C)cc(-c3nc4ccccc4n3C)cc2n1Cc1ccc(-c2ccccc2C(=O)O)cc1` .
Compound metabolized

Identify measured Bacterial Biotransformation corresponding to C[C@@H]1CC[C@H]2[C@@H](C)C(=O)O[C@@H]3O[C@@]4(C)CC[C@@H]1[C@]32OO4 [ARTEMISININ]
Compound metabolized

Dear colleague, please send me the reported Bacterial Biotransformation for Nc1ccc(/N=N/c2ccccc2)c(N)n1 [PHENAZOPYRIDINE] when you can.
Compound metabolized

Please report the measured Bacterial Biotransformation for Cc1ccc(-c2cc(C(F)(F)F)nn2-c2ccc(S(N)(=O)=O)cc2)cc1 [CELECOXIB]
Compound NOT metabolized

Tell me measured Bacterial Biotransformation for CCN(CC)CCNC(C(=O)OCCC(C)C)c1ccccc1.Cl.Cl (stereo unspecified) please.
Compound metabolized

New cases:
Respond only with Bacterial Biotransformation recorded for CN(C)CCc1c[nH]c2ccc(Cn3cncn3)cc12.O=C(O)c1ccccc1 [RIZATRIPTAN BENZOATE]
Compound NOT metabolized

Provide one value: measured Bacterial Biotransformation of O=C1NCC2(CCN(CCc3ccccc3)CC2)O1 [FENSPIRIDE]
Compound NOT metabolized
